Field: MIC. Provide a value for each of the molecules that follow.
Tested on: Escherichia coli
Test: In vitro antibacterial activity was measured on gram negative bacteria Escherichia coli PRP-1 tet-a(efflux resistance) cell lines
Format: functional
Just the number in µg/mL, nothing appended.

Recall the recorded MIC for C[C@H]1c2ccc(NC(=O)CN(C)C)c(O)c2C(=O)C2=C(O)[C@]3(O)C(O)=C(C(N)=O)C(=O)[C@@H](N(C)C)C3[C@@H](O)C21 (stereo partly drawn) with Escherichia coli and state it.
2

// lookup MIC | system=Escherichia coli | key= CC(C)[C@H](N)C(=O)Nc1ccc2c(c1O)C(=O)C1=C(O)[C@]3(O)C(O)=C(C(N)=O)C(=O)[C@@H](N(C)C)C3[C@@H](O)C1[C@H]2C (stereo partly drawn)
32

GET /values?readout=MIC&system=Escherichia coli&item= C[C@H]1c2cccc(O)c2C(=O)C2=C(O)[C@]3(O)C(O)=C(C(N)=O)C(=O)[C@@H](N(C)C)[C@@H]3[C@@H](O)C21 (stereo partly drawn)
16

Please state recorded MIC (tested on Escherichia coli) of CN(C)CC(=O)Nc1cc(N(C)C)c2c(c1O)C(=O)C1=C(O)[C@]3(O)C(O)=C(C(N)=O)C(=O)[C@@H](N(C)C)[C@@H]3CC1C2 (stereo partly drawn)
2

Request body: readout MIC, system Escherichia coli, query CC(C)C[C@H](N)C(=O)Nc1ccc2c(c1O)C(=O)C1=C(O)[C@]3(O)C(O)=C(C(N)=O)C(=O)[C@@H](N(C)C)C3CC1C2 (stereo partly drawn) . Return the value.
4

Give recorded MIC with Escherichia coli for the following molecule: CCCCNCC(=O)Nc1ccc2c(c1O)C(=O)C1=C(O)[C@]3(O)C(O)=C(C(N)=O)C(=O)[C@@H](N(C)C)C3[C@@H](O)C1[C@H]2C (stereo partly drawn)
4

Can you look up MIC on Escherichia coli for C[C@H]1c2ccc(NC(=O)CNC(C)(C)C)c(O)c2C(=O)C2=C(O)[C@]3(O)C(O)=C(C(N)=O)C(=O)[C@@H](N(C)C)C3[C@@H](O)C21 (stereo partly drawn) ?
1

Under Escherichia coli: MIC value of CC(C)C[C@H](N)C(=O)Nc1ccc2c(c1O)C(=O)C1=C(O)[C@]3(O)C(O)=C(C(N)=O)C(=O)[C@@H](N(C)C)C3[C@@H](O)C1[C@H]2C (stereo partly drawn) ?
16

Query for Escherichia coli: what MIC does the record show for CN(C)CC(=O)Nc1ccc2c(c1O)C(=O)C1=C(O)[C@]3(O)C(O)=C(C(N)=O)C(=O)[C@@H](N(C)C)[C@@H]3CC1C2 (stereo partly drawn) ?
2

Item: CC[C@H](C)[C@H](N)C(=O)Nc1ccc2c(c1O)C(=O)C1=C(O)[C@]3(O)C(O)=C(C(N)=O)C(=O)[C@@H](N(C)C)C3[C@@H](O)C1[C@H]2C (stereo partly drawn) Test system: Escherichia coli Read-out: MIC Value: ?
16

Find the measured MIC: item C[C@H]1c2ccc(NC(=O)CN3CCCCC3)c(O)c2C(=O)C2=C(O)[C@]3(O)C(O)=C(C(N)=O)C(=O)[C@@H](N(C)C)C3[C@@H](O)C21 (stereo partly drawn) , target or system Escherichia coli.
2

What value of MIC on Escherichia coli does C[C@H]1c2ccc(NC(=O)[C@@H](N)Cc3ccccc3)c(O)c2C(=O)C2=C(O)[C@]3(O)C(O)=C(C(N)=O)C(=O)[C@@H](N(C)C)C3[C@@H](O)C21 (stereo partly drawn) have?
8

Form: Entry = CCN(CC)CC(=O)Nc1ccc2c(c1O)C(=O)C1=C(O)[C@]3(O)C(O)=C(C(N)=O)C(=O)[C@@H](N(C)C)C3[C@@H](O)C1[C@H]2C (stereo partly drawn) | System = Escherichia coli | MIC = ____
4

What value of MIC on Escherichia coli does C[C@H]1c2ccc(NC(=O)[C@@H](N)Cc3ccc(O)cc3)c(O)c2C(=O)C2=C(O)[C@]3(O)C(O)=C(C(N)=O)C(=O)[C@@H](N(C)C)C3[C@@H](O)C21 (stereo partly drawn) have?
32

Fill in the recorded MIC for this molecule, with Escherichia coli as test system: C[C@H]1c2ccc(NC(=O)[C@@H](N)Cc3c[nH]c4ccccc34)c(O)c2C(=O)C2=C(O)[C@]3(O)C(O)=C(C(N)=O)C(=O)[C@@H](N(C)C)C3[C@@H](O)C21 (stereo partly drawn)
16

# returns recorded MIC (system: Escherichia coli) for C[C@H]1c2ccc(NC(=O)CN3CCCC3)c(O)c2C(=O)C2=C(O)[C@]3(O)C(O)=C(C(N)=O)C(=O)[C@@H](N(C)C)C3[C@@H](O)C21 (stereo partly drawn)
2

---

System: Escherichia coli
Assay: In vitro antibacterial activity was measured on gram negative bacteria Escherichia coli J3272 tet-D(efflux resistance) cell lines
Assay type: functional
MEASURED QUANTITY: MIC (µg/mL)
Express the result in µg/mL but write the number alone.

Reported MIC for C[C@H]1c2ccc(NC(=O)[C@@H]3CCCN3)c(O)c2C(=O)C2=C(O)[C@]3(O)C(O)=C(C(N)=O)C(=O)[C@@H](N(C)C)C3[C@@H](O)C21 (stereo not given in full) : what is it?
1

# get_value(readout='MIC', item= C[C@H]1c2ccc(NC(=O)[C@H](N)Cc3ccccc3)c(O)c2C(=O)C2=C(O)[C@]3(O)C(O)=C(C(N)=O)C(=O)[C@@H](N(C)C)C3[C@@H](O)C21 (stereo not given in full) )
1

Dear colleague, I am looking for the recorded MIC of the following molecule: CC(C)[C@H](N)C(=O)Nc1ccc2c(c1O)C(=O)C1=C(O)[C@]3(O)C(O)=C(C(N)=O)C(=O)[C@@H](N(C)C)C3[C@@H](O)C1[C@H]2C (stereo not given in full)
1

So what's the measured MIC for this one? CC[C@H](C)[C@H](N)C(=O)Nc1ccc2c(c1O)C(=O)C1=C(O)[C@]3(O)C(O)=C(C(N)=O)C(=O)[C@@H](N(C)C)C3[C@@H](O)C1[C@H]2C (stereo not given in full)
0.5

Given the molecule C[C@H]1c2ccc(NC(=O)[C@@H](N)CC3CCCCC3)c(O)c2C(=O)C2=C(O)[C@]3(O)C(O)=C(C(N)=O)C(=O)[C@@H](N(C)C)C3[C@@H](O)C21 (stereo not given in full) , what is its reported MIC?
2

---

Test system: Escherichia coli
Assay: In vitro antibacterial activity was measured on gram negative bacteria Escherichia coli UBMS 90-5 sensitive cell lines
Format: functional
MEASURED QUANTITY: MIC (µg/mL)
Use µg/mL as the unit, but write only the number.

Given the entry CC(=O)Nc1ccc2c(c1O)C(=O)C1=C(O)[C@]3(O)C(O)=C(C(N)=O)C(=O)[C@@H](N(C)C)C3[C@@H](O)C1[C@H]2C (some centres undefined) , report its measured MIC.
8

Any idea what MIC was measured for C[C@H]1c2ccc(NC(=O)[C@H](N)Cc3ccccc3)c(O)c2C(=O)C2=C(O)[C@]3(O)C(O)=C(C(N)=O)C(=O)[C@@H](N(C)C)C3[C@@H](O)C21 (some centres undefined) ?
4

Could you share which MIC value was measured for C[C@H]1c2ccc(NC(=O)CN)c(O)c2C(=O)C2=C(O)[C@]3(O)C(O)=C(C(N)=O)C(=O)[C@@H](N(C)C)C3[C@@H](O)C21 (some centres undefined) ?
8

---

System: Escherichia coli
Experiment: In vitro antibacterial activity was measured on gram negative bacteria Escherichia coli PRP-1 tet-a(efflux resistance) cell lines
Type: functional
Provide the recorded MIC for the entries that follow.
Express the result in µg/mL but write the number alone.

Entry C[C@H]1c2ccc(NC(=O)[C@@H]3CCCN3)c(O)c2C(=O)C2=C(O)[C@]3(O)C(O)=C(C(N)=O)C(=O)[C@@H](N(C)C)C3[C@@H](O)C21 (stereo partly drawn) has what MIC?
16

Could you tell me which MIC is on file for CN[C@@H](CC(C)C)C(=O)Nc1ccc2c(c1O)C(=O)C1=C(O)[C@]3(O)C(O)=C(C(N)=O)C(=O)[C@@H](N(C)C)C3[C@@H](O)C1[C@H]2C (stereo partly drawn) ?
16

GET /values?readout=MIC&item= CN(C)[C@@H]1C(O)=C(C(N)=O)C(=O)[C@@]2(O)C(O)=C3C(=O)c4c(O)cccc4C[C@H]3C[C@@H]12 [SANCYCLINE]
8

---

Test system: Staphylococcus aureus
Assay: In vitro antibacterial activity was measured on gram positive bacteria Staphylococcus aureus smith cell lines
Assay type: functional
For each entry below, report its MIC value.
Report only the number, with the unit µg/mL understood.

// returns reported MIC for input COC(=O)Nc1ccc2c(c1O)C(=O)C1=C(O)[C@]3(O)C(O)=C(C(N)=O)C(=O)[C@@H](N(C)C)C3[C@@H](O)C1[C@H]2C (stereo partly specified)
0.06

Param item = CN[C@@H](CC(C)C)C(=O)Nc1ccc2c(c1O)C(=O)C1=C(O)[C@]3(O)C(O)=C(C(N)=O)C(=O)[C@@H](N(C)C)C3[C@@H](O)C1[C@H]2C (stereo partly specified) ; retrieve measured MIC.
2

# get_value(readout='MIC', item= CC(C)C(=O)Nc1ccc2c(c1O)C(=O)C1=C(O)[C@]3(O)C(O)=C(C(N)=O)C(=O)[C@@H](N(C)C)C3[C@@H](O)C1[C@H]2C (stereo partly specified) )
1

What measured MIC goes with CN(C)CC(=O)Nc1cc(N(C)C)c2c(c1O)C(=O)C1=C(O)[C@]3(O)C(O)=C(C(N)=O)C(=O)[C@@H](N(C)C)[C@@H]3CC1C2 (stereo partly specified) ?
0.25

Returns the measured MIC for the input compound. Input: C[C@H]1c2ccc(NC(=O)CN)c(O)c2C(=O)C2=C(O)[C@]3(O)C(O)=C(C(N)=O)C(=O)[C@@H](N(C)C)C3[C@@H](O)C21 (stereo partly specified)
8

Please look up its MIC: CC[C@H](C)[C@H](N)C(=O)Nc1ccc2c(c1O)C(=O)C1=C(O)[C@]3(O)C(O)=C(C(N)=O)C(=O)[C@@H](N(C)C)C3[C@@H](O)C1[C@H]2C (stereo partly specified)
1
